B1: HDV Ribozyme (parent)
chain: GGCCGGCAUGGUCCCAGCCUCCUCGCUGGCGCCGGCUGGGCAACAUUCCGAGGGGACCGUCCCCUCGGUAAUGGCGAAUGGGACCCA

variants of: B1; assay: self-cleavage, relative activity (ratio to wild type); higher = more cleavage; co-transcriptional
Assign met whenever self-cleavage does not fall below 0.2; assign not met whenever it does.

Variant: G2U C84A
Cat: not met
--
Variant: G76C C86U
Cat: met
--
Variant: G67A A71G
Cat: met
--
Variant: U37G C57A
Cat: not met
--
Variant: U9G C32G
Cat: met
--
Variant: C57A C84A
Cat: met
--
Variant: G6C C49G
Cat: not met
--
Variant: G31U G81U
Cat: met

Does C7A A78U have a reported self-cleavage of at least 0.2?
not met

Does C15A G82U have a reported self-cleavage of at least 0.2?
met

Does G39C U65G have a reported self-cleavage of at least 0.2?
met

Does G2A G52C have a reported self-cleavage of at least 0.2?
not met

Does G40A C85A have a reported self-cleavage of at least 0.2?
met

Does G17C A77U have a reported self-cleavage of at least 0.2?
not met

Does G54C U60G have a reported self-cleavage of at least 0.2?
met

Does C41G G52U have a reported self-cleavage of at least 0.2?
met

Does G6U G11A have a reported self-cleavage of at least 0.2?
not met

Does C22G C33G have a reported self-cleavage of at least 0.2?
not met

Does G10A U79G have a reported self-cleavage of at least 0.2?
met

Does G31A A83G have a reported self-cleavage of at least 0.2?
met

Does A71U C86U have a reported self-cleavage of at least 0.2?
met

Does C32U U47C have a reported self-cleavage of at least 0.2?
met

Does C19G C33G have a reported self-cleavage of at least 0.2?
not met
